# Test system: β-galactosidase in CMV-LacZ C2C12 myotubes
# Method: CMV-LacZ secondary screen in C2C12 myotubes (β-Gal stabilizing assay)
# Assay type: cell-based, mouse
# Condition Description: 40 uM; C2C12 CMV-LacZ myotubes; fold relative to DMSO
Observable: CMV-LACZ in Myotubes, signal relative to DMSO

| Molecule | Reading |
| --- | --- |
| CC(C)c1ccc(NC(=O)CN2C(=O)c3ccccc3S2(=O)=O)cc1 [MLS001229477-01] | 0.9611 |
| O=C(COC(=O)Cn1cnc2ccccc21)Nc1cccc([N+](=O)[O-])c1 [MLS001005283-01] | 1.1425 |
| COc1ccc(S(=O)(=O)N(NC2=NS(=O)(=O)c3ccccc32)C(=O)C(C)C)cc1 [MLS000682883-01] | 0.8967 |
| COc1ccccc1C(=O)Nc1ccnn1C1CCN(C(=O)c2ccoc2)CC1 [MLS001083082-01] | 1.1165 |
| O=[N+]([O-])c1cccc(S(=O)(=O)N2CCN(S(=O)(=O)N3CCOCC3)CC2)c1 [MLS000912614-01] | 1.012 |
| CCCS(=O)(=O)c1nc(S(=O)(=O)c2ccc(C)cc2)c(N2CCCC2)s1 [MLS000113985-01] | 1.0482 |
| CCOC(=O)c1cc(-c2cccs2)nc2c1c(C)nn2-c1ccccn1 [MLS001006516-01] | 0.9484 |
| O=C(O)c1csc(-c2cccs2)n1 [MLS000760876-01] | 1.2565 |
| O=C(N[C@@H](Cc1c[nH]c2ccccc12)C(=O)O)C1CCN(S(=O)(=O)c2cccs2)CC1 [MLS001175021-01] | 0.9733 |
| COc1ccc(Cl)cc1NC(=O)c1cc(-c2cc(C)ccc2O)n[nH]1 [MLS000779126-01] | 1.1671 |
| Fc1ccc(-c2ccnc3nc(N4CCN(c5ccccc5)CC4)nn23)cc1 [MLS000546316-01] | 1.2640 |
| O=C(N/N=C/c1c[nH]c2ccccc12)c1cc(Cl)ccc1O [MLS001196572-01] | 1.1422 |
| CCn1c(=O)c2cc(C(=O)N(C)c3cc(C)ccc3OC)sc2c2ccccc21 [MLS000731285-01] | 0.6450 |
| O=C(Nc1cc(-c2nc3ccccc3s2)ccc1Cl)c1ccc2c(c1)OCO2 [MLS000560266-01] | 0.9470 |
| COc1ccc(C)cc1NC(=O)c1ccc2c(O)c(S(=O)(=O)c3ccccc3)c(=O)[nH]c2c1 [MLS001122718-01] | 0.89 |
| Br.COc1ccc(C(=O)CN2CCCCC2)cc1 [MLS001004864-01] | 0.8884 |
| CCCN(C(=O)c1ccc(S(=O)(=O)N2CCCC2)cc1)C1CCS(=O)(=O)C1 (centres unmarked) [MLS002161853-01] | 1.0647 |
| CN(/C(=N/S(=O)(=O)c1cccs1)c1ccccc1)c1ccccc1 [MLS000582947-01] | 1.0247 |
| COc1ccc(NC(=O)c2cccc(N3C(=O)c4ccc(C(=O)Nc5ccc(OC)c(O)c5)cc4C3=O)c2)cc1O [MLS001124732-01] | 0.972 |
| CCOc1ccccc1NC(=O)c1cccc2c1C(=O)N(C1CCCCC1)C2 [MLS000912726-01] | 1.0150 |
| CC(=O)C1=C(C)Nc2ncnn2C1c1ccc(C)cc1 (centres unmarked) [MLS001197779-01] | 1.0540 |
| N#Cc1ccccc1S(=O)(=O)N1CCN(C(=O)C2CCCCC2)CC1 [MLS002251986-01] | 0.9776 |
| Nc1ncnc(NCc2ccccc2)c1[N+](=O)[O-] [MLS000698826-01] | 1.0789 |
| Oc1c(Br)cc(Br)cc1CNc1cccc2cccnc12 [MLS001183429-01] | 0.5809 |
| O=C1Nc2ccccc2/C1=C/c1ccccc1F [MLS001202389-01] | 0.9311 |
| CC(C)(C)n1cnc2cc(NC(=O)c3ccco3)ccc21 [MLS001223567-01] | 1.012 |
| Nc1ncnc(N2CCc3ccccc32)c1[N+](=O)[O-] [MLS000683232-01] | 0.8365 |
| CC(O)CNc1nc2c(c(=O)n(Cc3ccc(Br)cc3)c(=O)n2C)n1C (centres unmarked) [MLS001212319-01] | 1.0706 |
| COc1ccc(S(=O)(=O)N2CCCCCC2)cc1C(=O)N1CCN(c2ccccc2O)CC1 [MLS001150751-01] | 0.889 |
| Cl.O=C(CN1CCOCC1)NCc1cc([N+](=O)[O-])ccc1O [MLS001211976-01] | 1.014 |
| COc1ccccc1CNS(=O)(=O)c1ccc(Cl)s1 [MLS001175449-01] | 0.8671 |
| O=C(CNC(=O)c1cccc(F)c1)N/N=C/c1cc(Br)ccc1OCc1ccccc1 [MLS000591667-01] | 0.8800 |
| CCN(CC(=O)NCc1cccs1)C(=O)COc1ccc(C(N)=O)cc1 [MLS002163101-01] | 1.5447 |
| Cc1ccc(NS(=O)(=O)c2ccc3c(c2)NC(=O)CCS3)c(Br)c1 [MLS001095231-01] | 0.6229 |
| Cc1ccccc1C(=O)Nc1nnc(SC(C)C)s1 [MLS000683174-01] | 1.238 |
